target: T1, human IL-12RB1 with C-terminal FLAG tag, transiently expressed on HEK-293T cells (human, UniProt P42701 24-662); assay: FACS, periplasmic extract, HEK-293T
T1 construct: whole, on cells
reported.endpoint: FOB

>  <binder>
VHH108B1 (VHH) VHH: EVQLVESGGGLVQPGGSLTLSCTASGFRFSDRSMGWYRQAPGKQRELVAAITVGGSTNYADSVKGRFTISRDNAKNTVYLQMNSLKPEDTALYYCNRRYPPDDYWGQGTQVTVSS

>  <reported.endpoint>
FOB

>  <data.value>
260 fold

$$$$
>  <binder>
VHH54B1 (VHH) VHH: QVQLVESGGGLVQAGGSLRLSCAASGGPFSGYVMGWFRQVSGKEREFVAGITGISSTYFADSVKGRFTISRDNAKNMVYLQMNSLKPEDTAVYYCAAVNSFGVIPTSPNGMDYWGKGTLVTVSS

>  <reported.endpoint>
FOB

>  <data.value>
43 fold

$$$$
>  <binder>
VHH174B1 (VHH) VHH: QVQLVESGGGAVQAGGSLRLSCAASGLTSRHYVMAWFRQAPGIEREFVASIWWGGSTYYADSVKDRFTISRDNAENTVYLQMNSLKPEDTAVYRCAVGTKIGTMGPRYDYWGQGTQVTVSS

>  <reported.endpoint>
FOB

>  <data.value>
80 fold

$$$$
>  <binder>
VHH238B1 (VHH) VHH: QLQLVESGGGLVQPGGSLRLSCAASGFTFSSYGMSWVRQAPGKGLEWVSYISAGGGTTTYVDFVKGRFTISRDNAKNMLYLQMNSLKPEDTAVYYCVHAADGSRGQGTQVTVSS

>  <reported.endpoint>
FOB

>  <data.value>
50 fold

$$$$
